Molecular target: wild-type human cardiac sodium channel, hNav1.5 (peak INa) (Homo sapiens, UniProt Q14524)
Sequence (Q14524 whole entry): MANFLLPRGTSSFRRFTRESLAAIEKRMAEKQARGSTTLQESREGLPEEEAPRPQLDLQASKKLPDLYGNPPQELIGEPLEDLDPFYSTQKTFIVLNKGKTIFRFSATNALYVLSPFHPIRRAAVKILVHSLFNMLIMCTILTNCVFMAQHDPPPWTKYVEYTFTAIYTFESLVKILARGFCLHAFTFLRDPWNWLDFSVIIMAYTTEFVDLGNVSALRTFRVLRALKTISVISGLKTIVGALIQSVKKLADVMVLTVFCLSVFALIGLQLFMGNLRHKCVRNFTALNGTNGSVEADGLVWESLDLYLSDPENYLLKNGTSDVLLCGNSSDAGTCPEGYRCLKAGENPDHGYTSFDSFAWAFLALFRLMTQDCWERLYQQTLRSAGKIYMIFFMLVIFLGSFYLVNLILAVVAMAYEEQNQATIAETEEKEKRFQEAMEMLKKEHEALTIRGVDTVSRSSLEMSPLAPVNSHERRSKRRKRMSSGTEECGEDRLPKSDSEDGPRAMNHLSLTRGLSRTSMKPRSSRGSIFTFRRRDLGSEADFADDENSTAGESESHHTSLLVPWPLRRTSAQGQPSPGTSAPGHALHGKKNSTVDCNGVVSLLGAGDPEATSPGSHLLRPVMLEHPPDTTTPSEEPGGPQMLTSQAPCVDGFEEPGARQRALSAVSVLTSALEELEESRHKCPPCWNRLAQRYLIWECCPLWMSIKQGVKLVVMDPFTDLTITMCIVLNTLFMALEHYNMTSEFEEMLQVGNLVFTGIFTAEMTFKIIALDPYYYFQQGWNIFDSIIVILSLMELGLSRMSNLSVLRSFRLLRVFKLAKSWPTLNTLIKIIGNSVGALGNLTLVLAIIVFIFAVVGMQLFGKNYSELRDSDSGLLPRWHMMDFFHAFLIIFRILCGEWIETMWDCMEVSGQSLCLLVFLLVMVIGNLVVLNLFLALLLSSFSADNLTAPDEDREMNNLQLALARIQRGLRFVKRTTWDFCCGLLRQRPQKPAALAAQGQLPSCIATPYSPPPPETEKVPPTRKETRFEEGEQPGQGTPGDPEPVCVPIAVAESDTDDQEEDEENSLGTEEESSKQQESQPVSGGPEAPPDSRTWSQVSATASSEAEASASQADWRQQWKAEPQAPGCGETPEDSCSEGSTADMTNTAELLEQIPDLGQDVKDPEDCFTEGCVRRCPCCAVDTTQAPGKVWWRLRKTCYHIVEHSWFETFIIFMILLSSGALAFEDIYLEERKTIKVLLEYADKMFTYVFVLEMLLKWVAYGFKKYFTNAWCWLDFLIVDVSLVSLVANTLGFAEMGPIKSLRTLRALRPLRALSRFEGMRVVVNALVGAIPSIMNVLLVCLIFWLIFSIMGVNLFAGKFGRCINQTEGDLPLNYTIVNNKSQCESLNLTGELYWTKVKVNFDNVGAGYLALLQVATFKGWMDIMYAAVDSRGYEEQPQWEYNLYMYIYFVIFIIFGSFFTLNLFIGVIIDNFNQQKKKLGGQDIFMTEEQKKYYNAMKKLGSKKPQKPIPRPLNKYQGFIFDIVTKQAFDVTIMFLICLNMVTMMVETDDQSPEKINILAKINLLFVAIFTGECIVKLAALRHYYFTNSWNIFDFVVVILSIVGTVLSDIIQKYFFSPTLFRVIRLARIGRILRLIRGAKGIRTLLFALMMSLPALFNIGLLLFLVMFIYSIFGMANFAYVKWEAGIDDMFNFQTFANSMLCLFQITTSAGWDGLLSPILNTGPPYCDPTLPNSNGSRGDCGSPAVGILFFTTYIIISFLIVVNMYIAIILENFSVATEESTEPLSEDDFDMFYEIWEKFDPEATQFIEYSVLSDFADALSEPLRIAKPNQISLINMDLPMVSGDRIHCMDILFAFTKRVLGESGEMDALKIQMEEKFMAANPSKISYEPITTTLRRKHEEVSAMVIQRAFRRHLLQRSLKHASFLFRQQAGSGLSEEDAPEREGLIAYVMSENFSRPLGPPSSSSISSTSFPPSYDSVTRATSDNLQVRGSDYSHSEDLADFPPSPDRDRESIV
Experiment: Peak INa screening assay (tonic and use-dependent block)
Format: cell-based
Conditions: tonic block of peak INa, 0.1 Hz, 1 μM; read-out: Peak TB 1 μM
EXPERIMENTAL_ENDPOINT: inhibition at 1 µM (%)

1) COC(=O)C1(Cn2nnc3ccc(-c4ccc(OC(F)(F)F)cc4)cc3c2=O)CC1 [II-55]	7
2) O=c1c2cc(-c3ccc(OC(F)(F)F)cc3)ccc2nnn1CCc1ncccn1 [II-18]	15
3) O=c1c2cc(-c3ccc(OC(F)(F)F)cc3)ccc2cnn1CCn1cccn1 [III-9]	15
4) C[C@@H]1CC[C@@H](C)N1C(=O)N1CCc2ccc(-c3ccc(C(F)(F)F)cc3)cc2C1 [IX-105]	6
5) Cc1cnc(Cn2nnc3ccc(-c4ccc(OC(F)(F)F)cc4)cc3c2=O)o1 [II-96]	10
6) O=c1c2cc(-c3ccc(OC(F)(F)F)cc3)ccc2nnn1Cc1nnc(C2CC2)o1 [II-67]	12
7) O=c1c2cc(-c3ccc(OC(F)(F)F)cc3)ccc2cnn1Cc1nccc(C2CC2)n1 [III-23]	6
8) O=C1c2cc(-c3ccc(OC(F)(F)F)cc3)ccc2SCN1Cc1ncccn1 [Compound X-2]	14
9) Cc1ccnn1CCn1ncc2ccc(-c3ccc(OC(F)(F)F)cc3)cc2c1=O [III-32]	18

* * *

Target: wild-type human cardiac sodium channel, hNav1.5 (late INa) (Homo sapiens, UniProt Q14524)
Sequence (Q14524 whole entry): as above
Assay: Late INa screening assay (QPatch whole cell patch clamp)
Assay type: cell-based
Conditions: percent block of late INa, compound at 1 μM, 10 μM Tefluthrin, HEK293 hNav1.5; read-out: Late INa 1 μM
Measured inhibition at 1 µM, listed per entry for reference.
EXPERIMENTAL_ENDPOINT: inhibition at 1 µM (%)

1) O=C(N1CCc2ccc(-c3ccc(C(F)(F)F)cc3)cc2C1)N1CC(F)C1 [IX-95]	25
2) N#Cc1cnc(OCCn2nnc3ccc(-c4ccc(OC(F)(F)F)cc4)cc3c2=O)nc1 [II-51]	35
3) O=C1c2cc(-c3ccc(OC(F)(F)F)cc3)ccc2OCN1Cc1ccccn1 [VIII-3]	58
4) O=C(N1CCCC1)N1CCc2ccc(-c3ccc(C(F)(F)F)cc3)cc2C1 [IX-53]	33
5) O=c1c2cc(-c3ccc(OC(F)(F)F)cc3)ccc2nnn1Cc1ncc(Cl)cn1 [II-4]	41

* * *

Molecular target: wild-type human cardiac sodium channel, hNav1.5 (peak INa) (Homo sapiens)
Assay: Peak INa screening assay (tonic and use-dependent block)
Assay type: cell-based
Details: % inhibition at 1 μM, tonic block; read-out: NAv1.5*-PEAK-TB-
Measured inhibition at 1 µM, listed per entry for reference.
EXPERIMENTAL_ENDPOINT: inhibition at 1 µM

1) O=C(c1ncc[nH]1)N1CCc2ccc(-c3ccc(C(F)(F)F)cc3)cc2C1 [IX-57]	10%
2) Cc1noc(Cn2nnc3ccc(-c4ccc(OC(F)(F)F)cc4)cc3c2=O)n1 [II-3]	19%
3) COc1cc(OC)nc(Cn2ncc3ccc(-c4ccc(OC(F)(F)F)cc4)cc3c2=O)n1 [III-19]	14%
4) O=C1c2cc(-c3ccc(OC(F)(F)F)cc3)ccc2OCN1Cc1ccccn1 [VIII-3]	21%

* * *

Measured inhibition at 1 µM, listed per entry for reference.
Target: wild-type human cardiac sodium channel, hNav1.5 (peak INa) (Homo sapiens, UniProt Q14524)
Assay: Peak INa screening assay (tonic and use-dependent block)
Assay type: cell-based
Settings: tonic block of peak INa, 0.1 Hz, 1 μM; read-out: Peak TB 1 μM
EXPERIMENTAL_ENDPOINT: inhibition at 1 µM (%)

1) O=C(c1ncc[nH]1)N1CCc2ccc(-c3ccc(C(F)(F)F)cc3)cc2C1	10
2) COc1cc(OC)nc(Cn2nnc3ccc(-c4ccc(OC(F)(F)F)cc4)cc3c2=O)n1	10
3) O=c1c2cc(-c3ccc(OC(F)(F)F)cc3)ccc2cnn1CCOc1nccc(C2CC2)n1	10
